Sourced from ChEMBL document CHEMBL4190253

- SYSTEM: Cholinesterase (Equus caballus, UniProt P81908)
- Sequence (P81908 whole entry): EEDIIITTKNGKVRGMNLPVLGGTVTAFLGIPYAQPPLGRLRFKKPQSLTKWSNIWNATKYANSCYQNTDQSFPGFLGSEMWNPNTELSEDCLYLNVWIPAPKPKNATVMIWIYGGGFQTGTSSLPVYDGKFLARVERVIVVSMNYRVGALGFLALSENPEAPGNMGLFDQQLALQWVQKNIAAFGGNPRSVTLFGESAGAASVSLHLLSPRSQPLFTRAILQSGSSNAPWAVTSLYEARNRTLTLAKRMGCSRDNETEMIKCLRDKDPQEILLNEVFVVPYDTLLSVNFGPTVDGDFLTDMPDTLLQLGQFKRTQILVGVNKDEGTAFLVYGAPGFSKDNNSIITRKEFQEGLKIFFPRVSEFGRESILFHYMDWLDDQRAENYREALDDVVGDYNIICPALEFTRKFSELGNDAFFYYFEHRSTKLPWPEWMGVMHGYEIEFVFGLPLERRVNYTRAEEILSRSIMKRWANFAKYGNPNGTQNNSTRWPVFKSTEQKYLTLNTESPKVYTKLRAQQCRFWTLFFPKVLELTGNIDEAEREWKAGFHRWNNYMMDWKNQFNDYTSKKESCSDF
- EXPERIMENTAL_PROTOCOL: Inhibition of equine serum BCHE using butyrylthiocholine iodide as substrate preincubated for 10 mins followed by substrate addition measured after 30 mins by Ellman's method
MEASUREMENT_LABEL: IC50 (µM)
Give your result in µM as a bare value.

Enquiry: Record Cc1cccc(C(=O)NNC(=O)c2ccc3c(c2)COC3(CCCN(C)C)c2ccc(F)cc2)c1 (configuration not stated) : what is its IC50 with Cholinesterase (Equus caballus, UniProt P81908)?
Return: 88.7

Enquiry: Hi! What's the reported IC50 for CN(C)CCCC1(c2ccc(F)cc2)OCc2cc(C(=O)NNC(=O)c3cccc(O)c3)ccc21 (configuration not stated) on Cholinesterase (Equus caballus, UniProt P81908)?
Return: 129

Enquiry: Provide value of IC50 for this record tested with Cholinesterase (Equus caballus, UniProt P81908): CN(C)CCCC1(c2ccc(F)cc2)OCc2cc(C(=O)NNC(=O)c3ccc([N+](=O)[O-])cc3)ccc21 (configuration not stated)
Return: 169

Enquiry: Lab note: need IC50 with Cholinesterase (Equus caballus, UniProt P81908) for entry CN(C)CCCC1(c2ccc(F)cc2)OCc2cc(C(=O)NNC(=O)c3cccc(Br)c3)ccc21 (configuration not stated) , please look it up.
Return: 130

Enquiry: Notebook: pull reported IC50 for Cholinesterase (Equus caballus, UniProt P81908), entry CN(C)CCCC1(c2ccc(F)cc2)OCc2cc(C(=O)NNC(=O)c3ccccc3)ccc21 (configuration not stated)
Return: 75.8

Enquiry: Which IC50 is reported with Cholinesterase (Equus caballus, UniProt P81908) for this entry: CN(C)CCCC1(c2ccc(F)cc2)OCc2cc(C(=O)NNC(=O)c3ccc(N)cc3)ccc21 (configuration not stated) ?
Return: 5.98

Enquiry: Form field - read-out: IC50; system: Cholinesterase (Equus caballus, UniProt P81908); submitted item: COc1ccc(C(=O)NNC(=O)c2ccc3c(c2)COC3(CCCN(C)C)c2ccc(F)cc2)cc1 (configuration not stated)
Return: 196

Enquiry: Reported IC50 for Cholinesterase (Equus caballus, UniProt P81908), given CN(C)CCCC1(c2ccc(F)cc2)OCc2cc(C(=O)NNC(=O)c3ccc(I)cc3)ccc21 (configuration not stated) ?
Return: 5.88

Enquiry: Any idea what IC50 came out for Cc1ccc(C(=O)NNC(=O)c2ccc3c(c2)COC3(CCCN(C)C)c2ccc(F)cc2)cc1 (configuration not stated) on Cholinesterase (Equus caballus, UniProt P81908)?
Return: 158

Enquiry: Please tell me: IC50 of COc1ccccc1C(=O)NNC(=O)c1ccc2c(c1)COC2(CCCN(C)C)c1ccc(F)cc1 (configuration not stated) , system Cholinesterase (Equus caballus, UniProt P81908)?
Return: 130

Enquiry: API: value(readout= IC50, system= Cholinesterase (Equus caballus, UniProt P81908), query= CN(C)CCCC1(c2ccc(F)cc2)OCc2cc(C(=O)NNC(=O)c3ccc(F)cc3)ccc21 (configuration not stated) )
Return: 179

Enquiry: GET /values?readout=IC50&system=Cholinesterase (Equus caballus, UniProt P81908)&item= CN(C)CCCC1(c2ccc(F)cc2)OCc2cc(C(=O)NNC(=O)c3ccccc3N)ccc21 (configuration not stated)
Return: 68.2

Enquiry: Checklist item: IC50 tested on Cholinesterase (Equus caballus, UniProt P81908), entry CN(C)CCCC1(c2ccc(F)cc2)OCc2cc(C(=O)NNC(=O)c3ccc(Cl)cc3)ccc21 (configuration not stated) , value?
Return: 138

Enquiry: Give Cholinesterase (Equus caballus, UniProt P81908) IC50 for CN(C)CCCC1(c2ccc(F)cc2)OCc2cc(C(=O)NNC(=O)c3cccc(F)c3)ccc21 (configuration not stated)
Return: 185

Enquiry: Lookup: IC50 / Cholinesterase (Equus caballus, UniProt P81908) / CN(C)CCCC1(c2ccc(F)cc2)OCc2cc(C(=O)NNC(=O)c3ccccc3[N+](=O)[O-])ccc21 (configuration not stated)
Return: 76.3

Enquiry: GET /values?readout=IC50&system=Cholinesterase (Equus caballus, UniProt P81908)&item= CN(C)CCCC1(c2ccc(F)cc2)OCc2cc(C(=O)NNC(=O)c3ccc(O)cc3)ccc21 (configuration not stated)
Return: 192

Enquiry: Query for Cholinesterase (Equus caballus, UniProt P81908): what IC50 does the record show for CN(C)CCCC1(c2ccc(F)cc2)OCc2cc(C(=O)NNC(=O)c3cccc(Cl)c3)ccc21 (configuration not stated) ?
Return: 3.9

Enquiry: Find IC50 (Cholinesterase (Equus caballus, UniProt P81908)) for the entry CN(C)CCCC1(c2ccc(F)cc2)OCc2cc(C(=O)NNC(=O)c3ccccc3Cl)ccc21 (configuration not stated)
Return: 69.3

Enquiry: Form: Entry = Cc1ccccc1C(=O)NNC(=O)c1ccc2c(c1)COC2(CCCN(C)C)c1ccc(F)cc1 (configuration not stated) | System = Cholinesterase (Equus caballus, UniProt P81908) | IC50 = ____
Return: 233

Enquiry: Provide the documented IC50 with Cholinesterase (Equus caballus, UniProt P81908) as the system for CN(C)CCCC1(c2ccc(F)cc2)OCc2cc(C(=O)NNC(=O)c3cccc(I)c3)ccc21 (configuration not stated)
Return: 70.2

Enquiry: API: value(readout=IC50, system=Cholinesterase (Equus caballus, UniProt P81908)) for record CN(C)CCCC1(c2ccc(F)cc2)OCc2cc(C(=O)NNC(=O)c3ccccc3O)ccc21 (configuration not stated)
Return: 89

Enquiry: Hello, I am looking for reported IC50 with Cholinesterase (Equus caballus, UniProt P81908) for CN(C)CCCC1(c2ccc(F)cc2)OCc2cc(C(=O)NNC(=O)c3ccccc3I)ccc21 (configuration not stated) . Could you help?
Return: 77.9

Enquiry: Lab note: need IC50 for CN(C)CCCC1(c2ccc(F)cc2)OCc2cc(C(=O)NNC(=O)c3ccccc3Br)ccc21 (configuration not stated) on Cholinesterase (Equus caballus, UniProt P81908), anyone have it?
Return: 2.11

Enquiry: Recall the recorded IC50 for CN(C)CCCC1(c2ccc(F)cc2)OCc2cc(C(=O)NNC(=O)c3ccccc3F)ccc21 (configuration not stated) with Cholinesterase (Equus caballus, UniProt P81908) and state it.
Return: 71.4

Enquiry: Record lookup: for Cholinesterase (Equus caballus, UniProt P81908), what IC50 belongs to COc1cc(C(=O)NNC(=O)c2ccc3c(c2)COC3(CCCN(C)C)c2ccc(F)cc2)ccc1O (configuration not stated) ?
Return: 76.9

Enquiry: Recorded IC50 for CN(C)CCCC1(c2ccc(F)cc2)OCc2cc(C(=O)NNC(=O)c3ccc(Br)cc3)ccc21 (configuration not stated) with Cholinesterase (Equus caballus, UniProt P81908), please?
Return: 190

Enquiry: Which IC50 is reported with Cholinesterase (Equus caballus, UniProt P81908) for this entry: CN(C)CCCC1(c2ccc(F)cc2)OCc2cc(C(=O)NNC(=O)c3cccc([N+](=O)[O-])c3)ccc21 (configuration not stated) ?
Return: 185
